For each of the compounds below, state its pIC50.
TESTED SYSTEM: AKT2 (Homo sapiens, UniProt P31751)
Sequence (P31751 whole entry): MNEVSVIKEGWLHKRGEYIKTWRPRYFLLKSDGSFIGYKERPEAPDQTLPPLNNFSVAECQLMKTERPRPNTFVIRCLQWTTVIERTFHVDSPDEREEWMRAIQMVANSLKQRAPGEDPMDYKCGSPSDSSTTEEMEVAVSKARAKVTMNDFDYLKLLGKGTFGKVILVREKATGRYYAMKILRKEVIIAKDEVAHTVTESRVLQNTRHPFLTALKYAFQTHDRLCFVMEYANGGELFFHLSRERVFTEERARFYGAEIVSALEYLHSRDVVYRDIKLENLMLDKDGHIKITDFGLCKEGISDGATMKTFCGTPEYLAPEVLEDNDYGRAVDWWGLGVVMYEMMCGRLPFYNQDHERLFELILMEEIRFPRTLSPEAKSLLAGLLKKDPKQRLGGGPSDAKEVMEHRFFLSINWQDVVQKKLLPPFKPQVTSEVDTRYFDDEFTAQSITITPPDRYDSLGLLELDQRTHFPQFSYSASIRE
ASSAY: AKT Kinase Assay (IMAP fluorescent polarisation) vs AKT2
EXPERIMENTAL CONTEXT: activated AKT2, FAM Crosstide substrate
pIC50: −log10 of the molar value. Counter-ions that a name gives are not always drawn.

[[record]]
compound = "COc1ccc2c(=O)c(-c3ccc(C4(N)CCC4)cc3)c(-c3ccccc3)oc2c1C#N [Example 12]"
observed = "≥ 6.00"


The following compounds each have a reported value; give each one's pIC50.
1. Cc1noc(C)c1-c1cccc2c(=O)c(-c3ccc(C4(N)CCC4)cc3)c(-c3ccccc3)oc12 [Example 78]
2. NC1(c2ccc(-c3c(-c4ccccc4)oc4c(N5CCOCC5)cccc4c3=O)cc2)CCC1 [Example 72, hydrochloride]
3. Cn1ccc2c(=O)c(-c3ccc(C4(N)CCC4)cc3)c(-c3ccccc3)oc2c1=O [Example 41, hydrochloride]

Out:
1: 5.00 to 6.00; 2: 5.00 to 6.00; 3: 5.00 to 6.00

The following compounds each have a reported value; give each one's pIC50.
1. NC1(c2ccc(-c3c(-c4ccccc4)oc4c(-c5cn[nH]c5)nccc4c3=O)cc2)CCC1 [Example 80, hydrochloride]
2. Cc1nc2ccc3c(=O)c(-c4ccc(C5(N)CCC5)cc4)c(-c4ccccc4)oc3c2n1C [Example 90]

Out:
["≥ 6.00", "≥ 6.00"]

* * *

TESTED SYSTEM: AKT2 (Homo sapiens, UniProt P31751)
ASSAY: AKT Kinase Assay (IMAP fluorescent polarisation) vs AKT2
EXPERIMENTAL CONTEXT: activated AKT2, FAM Crosstide substrate
Where a name gives a salt, the structure may show the parent alone.
For each of the compounds below, state its IC50.

[[record]]
compound = "CCn1ncc2ccc3c(=O)c(-c4ccc(C5(N)CCC5)cc4)c(-c4ccccc4)oc3c21 [Example 81, hydrochloride]"
tested_system = "AKT2 (Homo sapiens, UniProt P31751)"
parameter_measured = "IC50"
observed = "≤ 1000 nM"

[[record]]
compound = "NC1(c2ccc(-c3c(-c4ccccc4)oc4c(-n5ccnc5)nccc4c3=O)cc2)CCC1"
tested_system = "AKT2 (Homo sapiens, UniProt P31751)"
parameter_measured = "IC50"
observed = "1000 to 10000 nM"

[[record]]
compound = "COc1ccc2c(=O)c(-c3ccc(C4(N)CCC4)cc3)c(-c3ccccc3)oc2c1-c1cn[nH]c1"
tested_system = "AKT2 (Homo sapiens, UniProt P31751)"
parameter_measured = "IC50"
observed = "≤ 1000 nM"

[[record]]
compound = "NC1(c2ccc(-c3c(-c4ccccc4)oc4c(OC(F)F)nccc4c3=O)cc2)CCC1"
tested_system = "AKT2 (Homo sapiens, UniProt P31751)"
parameter_measured = "IC50"
observed = "≤ 1000 nM"

[[record]]
compound = "CC(C)n1ncc2ccc3c(=O)c(-c4ccc(C5(N)CCC5)cc4)c(-c4ccccc4)oc3c21 [Example 83, hydrochloride]"
tested_system = "AKT2 (Homo sapiens, UniProt P31751)"
parameter_measured = "IC50"
observed = "≤ 1000 nM"

[[record]]
compound = "NC1(c2ccc(-c3c(-c4ccccc4)oc4c(-c5c[nH]nc5C(F)(F)F)cccc4c3=O)cc2)CCC1"
tested_system = "AKT2 (Homo sapiens, UniProt P31751)"
parameter_measured = "IC50"
observed = "1000 to 10000 nM"

[[record]]
compound = "NC1(c2ccc(-c3c(-c4ccccc4)oc4ccc(Br)cc4c3=O)cc2)CCC1"
tested_system = "AKT2 (Homo sapiens, UniProt P31751)"
parameter_measured = "IC50"
observed = "1000 to 10000 nM"

[[record]]
compound = "NC1(c2ccc(-c3c(-c4ccccc4)oc4c(CN5CC(F)C5)cccc4c3=O)cc2)CCC1"
tested_system = "AKT2 (Homo sapiens, UniProt P31751)"
parameter_measured = "IC50"
observed = "≤ 1000 nM"


Below: the item to evaluate.
In: What does the record list as IC50 for `NC1(c2ccc(-c3c(-c4ccccc4)oc4c(-c5c[nH]nn5)cccc4c3=O)cc2)CCC1` ?
Out: ≤ 1000 nM
